- SYSTEM: CDK7/CycH/MNAT1 (Homo sapiens (Human), UniProt P50613)
- Sequence (P50613 whole entry): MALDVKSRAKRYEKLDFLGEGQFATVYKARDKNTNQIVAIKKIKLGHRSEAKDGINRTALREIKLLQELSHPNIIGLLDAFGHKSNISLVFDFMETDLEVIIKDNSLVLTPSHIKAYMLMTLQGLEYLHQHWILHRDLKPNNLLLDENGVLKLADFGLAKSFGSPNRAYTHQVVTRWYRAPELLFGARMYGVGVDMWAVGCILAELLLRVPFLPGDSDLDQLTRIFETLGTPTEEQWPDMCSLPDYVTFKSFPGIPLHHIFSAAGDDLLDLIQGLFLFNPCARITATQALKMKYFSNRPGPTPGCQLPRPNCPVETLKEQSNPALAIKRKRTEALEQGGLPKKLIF
- Sequence (P51946 whole entry partner): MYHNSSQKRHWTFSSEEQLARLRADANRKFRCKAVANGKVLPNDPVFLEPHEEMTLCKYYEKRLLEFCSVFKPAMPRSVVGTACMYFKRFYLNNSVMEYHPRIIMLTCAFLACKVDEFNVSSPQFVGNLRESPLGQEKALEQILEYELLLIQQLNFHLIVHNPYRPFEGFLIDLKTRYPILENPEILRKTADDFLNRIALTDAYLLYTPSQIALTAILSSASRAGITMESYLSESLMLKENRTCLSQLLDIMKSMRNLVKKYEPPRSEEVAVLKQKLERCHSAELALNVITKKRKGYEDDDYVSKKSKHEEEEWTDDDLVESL
- Sequence (P51948 whole entry partner): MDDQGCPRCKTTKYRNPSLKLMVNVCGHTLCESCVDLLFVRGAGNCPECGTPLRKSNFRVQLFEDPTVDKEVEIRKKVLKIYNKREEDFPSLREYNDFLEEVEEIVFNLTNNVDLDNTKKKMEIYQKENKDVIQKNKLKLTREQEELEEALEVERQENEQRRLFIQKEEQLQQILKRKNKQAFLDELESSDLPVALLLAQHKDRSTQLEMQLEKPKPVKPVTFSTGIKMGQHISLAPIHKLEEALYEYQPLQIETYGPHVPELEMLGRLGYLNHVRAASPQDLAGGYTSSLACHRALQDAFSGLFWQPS
- TEST_NAME: Biochemical assay for CDK7 (TR-FRET kinase assay)
- APPLIED_CONDITIONS: 10 μM compound; 60 min pre-incubation; 1 mM ATP; read-out: % inhibition @ 10 μM
EXPERIMENTAL_ENDPOINT: inhibition at 10 µM (%)

[
  {
    "COMPOUND": "C=CC(=O)N1CCCCC1C(=O)Nc1ccc(C)c(CNc2nc(NC3CCOCC3)nc3c(C(C)C)cnn23)c1 (stereo not drawn)",
    "inhibition at 10 µM / %": 73
  },
  {
    "COMPOUND": "C=CC(=O)N1CCC(NC(=O)c2cccc(Nc3nc(OC4CCN(C)CC4)nc4c(C(C)C)cnn34)c2)CC1",
    "inhibition at 10 µM / %": 93
  },
  {
    "COMPOUND": "C=CC(=O)N1CC[C@@H]1C(=O)Nc1cccc(CNc2nc(NC3CCOCC3)nc3c(C(C)C)cnn23)c1",
    "inhibition at 10 µM / %": 100
  },
  {
    "COMPOUND": "C=CC(=O)N[C@H]1CC[C@@H](C(=O)Nc2cccc(CNc3nc(OC4CCN(C)C4)nc4c(C(C)C)cnn34)c2)CC1 (stereo partly drawn)",
    "inhibition at 10 µM / %": 96
  },
  {
    "COMPOUND": "C=CC(=O)N1CCC1C(=O)Nc1cc(F)cc(CNc2nc(NC3CCOCC3)nc3c(C(C)C)cnn23)c1 (stereo not drawn)",
    "inhibition at 10 µM / %": 100
  },
  {
    "COMPOUND": "C=CC(=O)N1CCCC(C(=O)Nc2cccc(CNc3nc(NC4CCN(C)CC4)nc4c(C(C)C)cnn34)c2)C1 (stereo not drawn)",
    "inhibition at 10 µM / %": 96
  },
  {
    "COMPOUND": "C=CC(=O)N1CCC1C(=O)Nc1cc(CNc2nc(NC3CCOCC3)nc3c(C(C)C)cnn23)ccc1C (stereo not drawn)",
    "inhibition at 10 µM / %": 99
  },
  {
    "COMPOUND": "C=CC(=O)N(C)CC(=O)Nc1cccc(CNc2nc(NC3CCOCC3)nc3c(C(C)C)cnn23)c1",
    "inhibition at 10 µM / %": 98
  },
  {
    "COMPOUND": "C=CC(=O)N1CCC1C(=O)Nc1cccc(CNc2nc(OC3CCN(C)CC3)nc3c(C(C)C)cnn23)c1 (stereo not drawn)",
    "inhibition at 10 µM / %": 99
  },
  {
    "COMPOUND": "CC(C)c1cnn2c(Nc3cccc(NC(=O)[C@H]4CC[C@H](NC(=O)/C=C/CN(C)C)CC4)c3)nc(OC3CCN(C)CC3)nc12",
    "inhibition at 10 µM / %": 90
  },
  {
    "COMPOUND": "C/C=C/C(=O)N1CCC1C(=O)Nc1cccc(CNc2nc(NC3CCOCC3)nc3c(C(C)C)cnn23)c1 (stereo not drawn)",
    "inhibition at 10 µM / %": 86
  },
  {
    "COMPOUND": "CCN(CC)C/C=C/C(=O)Nc1cccc(CNc2nc(NC3CCOCC3)nc3c(C(C)C)cnn23)c1",
    "inhibition at 10 µM / %": 97
  }
]
